# Lookup of reported GI50 keyed by entry
# Test system: SF-268
# method: NCI tumour cell line growth inhibition, 48 h
Active and inactive are the calls of the source. Cut-off read from the data, not from the text of the source: active = GI50 up to about 1.1 µM and inactive = higher.
readout.type: GI50

| compound | experimental.target | result |
| --- | --- | --- |
| CCC(c1nc2ccccc2c(=O)n1NC(=O)C(C)(C)C)C1(O)CCCCC1 (centres undefined) | SF-268 | > 100 µM (inactive) |
| O=C(CCc1nnc(S)[nH]1)Nc1cc(Cl)ccc1Cl | SF-268 | > 100 µM (inactive) |
| O[C@@H]1[C@H](OC2c3ccccc3-c3ccccc32)[C@H](OCc2ccccc2)[C@@H]2OC[C@H]1O2 | SF-268 | 57.1 µM (inactive) |
| COc1cc(N(Cc2ccc3oc(=O)c(-c4ccccc4)nc3c2)Cc2ccc3oc(=O)c(-c4ccccc4)nc3c2)cc(OC)c1OC | SF-268 | > 10 µM (inactive) |

====

# Tested on: NCI-H23
# method: NCI tumour cell line growth inhibition, 48 h
Activity calls are given as the source filed them. No stated cut-off is given here; in the data, active = GI50 up to about 1.1 µM and inactive = higher. Peptide text beside a SMILES is read from it. * marks the point of attachment. X27 = Clc1c(Cl)c(Cl)c(O*)c(Cl)c1Cl; Boc = CC(C)(C)OC(=O)*; OBn = c1ccc(CO*)cc1; Bn = c1ccc(C*)cc1
Classes used: 1 (yes) = active, 0 (no) = inactive

| compound | label.class |
| --- | --- |
| O=C(CCN1CCCC1)c1ccc(Oc2ccc(F)cc2)cc1 | 0 (no) |
| O=C(NC(=O)c1cc2cc(Br)cc(Br)c2oc1=O)Oc1ccccc1 | 0 (no) |
| COc1ccc(/C(=N/O)c2ccccc2-c2nc3ccccc3c(=O)n2-c2ccc(S(=O)(=O)Nc3ncccn3)cc2)cc1C | 0 (no) |
| CC(C)CC(NC(=O)C(CCC(=O)OCc1ccccc1)NC(=O)OC(C)(C)C)C(=O)NC(COCc1ccccc1)C(=O)NC(Cc1ccccc1)C(=O)Oc1c(Cl)c(Cl)c(Cl)c(Cl)c1Cl (configuration not stated) (Boc-E(OBn)LS(Bn)F-X27; configuration not given here) | 0 (no) |
| COc1ccc(NC(/C(C(=O)c2ccccc2)=C(\O)C(=O)/C=C(\O)c2ccccc2)c2ccc(OC)cc2)cc1 (configuration not stated) | 0 (no) |
| O=C1OC2(OC2c2ccccc2)c2ccccc21 (configuration not stated) | 0 (no) |
| COc1ccc(/N=N/C(=N\c2ccccc2)c2ccc(N(CCC#N)CCC#N)cc2)cc1 | 0 (no) |
| COc1cc([C@@H]2c3cc4c(cc3[C@@H](OC3OC5COC(C)OC5C(O)C3O)[C@H]3COC(=O)[C@H]23)OCO4)cc(OC)c1O (some centres not stated) | 0 (no) |
| CC(=O)OC[C@H]1On2nnnc2[C@H](OC(C)=O)[C@@H](OC(C)=O)[C@@H]1OC(C)=O | 0 (no) |
| O=c1onc2c3ccccc3ncn12 | 0 (no) |
| O=C(O)c1cc2ccccc2c2c1C(=O)c1ccccc1-2 | 0 (no) |
| O=c1[nH]c(=O)n(C2CC(O)C(COP(=O)(OCC(Cl)(Cl)Cl)OCC(Cl)(Cl)Cl)O2)cc1F (configuration not stated) | 0 (no) |
| O[C@@H]1[C@H](OC2c3ccccc3-c3ccccc32)[C@H](OCc2ccccc2)[C@@H]2OC[C@H]1O2 | 0 (no) |
| N#Cc1nc(CCN2C(=O)c3ccccc3C2=O)oc1N | 0 (no) |
| C[C@H](CCC(=O)NN)[C@H]1CC[C@H]2[C@@H]3CC[C@@H]4C[C@H](O)CC[C@]4(C)[C@H]3CC[C@]12C | 0 (no) |
| Cc1n[nH]c(=O)c2cc(-c3ccccc3)[nH]c12 | 0 (no) |
| CC(=O)c1c(C)[n+]([O-])c2cc(C)c(C)cc2[n+]1[O-] | 0 (no) |
| COC(=O)C(Cc1cc(OC)c(OC)c(OC)c1)(NC(=O)c1ccccc1)P(=O)(OC)OC (configuration not stated) | 0 (no) |
| O=c1n(-c2ccccc2)c(=O)n2n1C1CCC2CC1 | 0 (no) |
| CCC(C)C1NC(=O)CNC(=O)C2Cc3c([nH]c4cc(O)ccc34)[S+]([O-])CC(NC(=O)CNC1=O)C(=O)NC(CC(=O)O)C(=O)N1CC(O)CC1C(=O)NC(C(C)C(O)CO)C(=O)N2 (configuration not stated) | 0 (no) |
| C=CCONC(=O)c1ccc(Cl)cc1 | 0 (no) |
| O=C1OCc2nc3c(c(-c4ccccc4C(F)(F)F)c21)C(=O)OC3 | 0 (no) |
| CCc1cccc(C)c1NC(=O)C1=C(C)NC(C)=C(C(=O)Nc2c(C)cccc2CC)C1c1ccc2c(c1)OCO2 | 0 (no) |
| OCC#CCNCl | 0 (no) |
| COc1ccccc1NCc1cccc2c(=O)c3ccc(Cl)cc3oc12 | 0 (no) |
| CCc1c2c(nc3ccc(O)cc13)-c1cc3c(c(=O)n1C2)COC(=O)[C@]3(O)CC [7-ETHYL-10-HYDROXYCAMPTOTHECIN] | 1 (yes) |
| Cc1ccc(/N=N/C(=N/NC(=O)c2cc(Cl)ccc2C(=O)c2ccccc2)c2ccc(N(CCC#N)CCC#N)cc2C)cc1 | 0 (no) |
| Nc1nc2c(ncn2CCOC(c2ccccc2)P(=O)(O)O)c(=O)[nH]1 (configuration not stated) | 0 (no) |
| C/C1=C/C2=CC(C)C[C@@H]2C(=O)[C@]2(C)C(=O)CC(C)(C)[C@H]2CC1=O (some centres not stated) | 0 (no) |
| O=C(c1cccs1)N1CCc2ccccc2C1 | 0 (no) |
| CCCC(O)c1cn(C(NC(=O)c2ccccc2)P(=O)(OCC)OCC)nn1 (configuration not stated) | 0 (no) |
| O=C(O)c1ccccc1Sc1ccc(C=C2NC(=S)N(c3ccccc3)C2=O)s1 | 0 (no) |
| CCN(CC)CCNC(=O)c1cc2cc(NC(=O)c3cc4cc(NC(=O)c5cc6cc([N+](=O)[O-])ccc6[nH]5)ccc4[nH]3)ccc2[nH]1 | 0 (no) |
| C=C(CCOC)CCC1CCCCC(CN(C)C)C1=O (configuration not stated) | 0 (no) |
| CCOC(=O)c1c(NC(=O)c2ccc(OC)cc2)sc2c1CCCC2 | 0 (no) |
| CCc1cc2c(c3c1CCC3=O)CC1(Cc3ccc(C)cc3C1)C2 (configuration not stated) | 0 (no) |
| COc1cc(-c2oc3ccccc3c(=O)c2O)cc(OC)c1OC | 0 (no) |
